B1: KRT13 (parent)
chain: TSSASVTTTSNASGRRTSDVRRP

variants of: B1; assay: protein stability index of a GFP-peptide fusion (GPS, HEK-293T) (PSI 1-6); higher = more stable; conditions: c terminus: native;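 further: lentivirally expressed fusions sorted by FACS into six bins by GFP to DsRed ratio, PSI derived from sequencing read proportions per bin multiplied by bin number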
Catalogue of variants with associated protein stability index
Give only the figure.

ALTERATION	REPORTED_VALUE
T8N	2.98
T17C	2.94
T7I	1.93
D19P	2.86
T17L	1.45
S2Q	1.06

Indicate its recorded protein stability index; the variant in question is S3K
2.86

// fetch protein stability index given entry R15C
2.17

Return value of protein stability index for input D19L , no commentary.
2.61

Give protein stability index for V20K
2.73

Fill in protein stability index for record A4D
3.4
